The measurements presented in this section are drawn from patent US20130101549A1.

- Measured On: T1, EGFR on MDA-MB-468 cells (UniProt P00533 25-1210, limits assumed)
- T1 construct: whole, on cells; also called MDA-MB-468 tumor cell line (EGFR+, HER2-)
- Assay Method Text: FACS on MDA-MB-468 cells (EGFR+, HER2-)
Measured Quantity: binding result

{"Binder": "BIIB67F11 Fab (Fab, V domains shown, Soluble human Fab from a naive phagemid Fab library) VH: EVQLLESGGGLVQPGGSLRLSCAASGFTFSNYYMMWVRQAPGKGLEWVSVIGSSGGMTNYADSVKGRFTISRDNSKNTLYLQMNSLRAEDTAVYYCARGYPTGYYDSSGWVYSYYGIDVWGQGTTVTVSS VL: DIQMTQSPSSLSASIGDRVTITCQASQDTDNRLHWYQQKSGRAPKLLIYDAVNLKRGVPSRFRGSGSGTNFILTITNLQPEDMATYFCQHSDGLSLAFGGGTKLEIK", "Test Value": "no binding"}
{"Binder": "BIIB66C01 Fab (Fab, V domains shown, Soluble human Fab from a naive phagemid Fab library) VH: EVQLLESGGGLVQPGGSLRLSCAASGFTFSWYSMSWVRQAPGKGLEWVSSISSSGGPTHYADSVKGRFTISRDNSKNTLYLQMNSLRAEDTAVYYCARDSSYSGTSWGQGTLVTVSS VL: QYELTQPPSVSGTPGQRVTISCSGSSSNIGSEYVYWFQQLPGTAPRLLIYRNDQRPSGVPDRFSGSKSGTSASLAISGLRSEDETDYYCTTWDDSLSGPVFGGGTKLTVL", "Test Value": "no binding"}
{"Binder": "BIIB65H09 Fab (Fab, V domains shown, Soluble human Fab from a naive phagemid Fab library) VH: EVQLLESGGGLVQPGGSLRLSCAASGFTFSWYSMWWVRQAPGKGLEWVSSIVSSGGQTRYADSVKGRFTISRDNSKNTLYLQMNSLRAEDTAVYYCARVKGYYYYIDVWGKGTTVTVSS VL: DIQMTQSPGTLSLSPGERATLSCRASQSVDSSYLSWYQQKPGQAPRLLIYGASTRATGIPARFSGSGSGTDFTLTVSRLEPEDFAVYYCQQHGYSSRTFGQGTKVEIK", "Test Value": "no binding"}
